System: Amaranthus retroflexus
Assay: Post-emergence herbicidal efficacy at 320 g/ha, AMARE
Type: in vivo
Settings: rated visually after about 3 weeks vs untreated controls, 100% = plants have died
quantityName: Post-emergence efficacy at 320 g/ha against AMARE in % (%)
The answer is to be given in %; state only the numeric part.

A selection of reference data follows.
| smilesEntry | valueObserved |
| --- | --- |
| N#Cc1cccc(Nc2ncc(Cl)cn2)c1Cc1ccc(F)cc1 | 100 |
| N#Cc1cccc(Nc2ncc(Cl)cn2)c1-n1cc(C(F)(F)F)cn1 | 100 |
| COc1cnc(Nc2cccc(F)c2-c2cc(C(F)F)no2)nc1 | 90 |
| Fc1cccc(Nc2ncc(Cl)cn2)c1-c1cc(C(F)F)no1 | 100 |

API: the following record is the query input.
The molecule identified as N#Cc1cccc(Nc2ncc(Cl)cn2)c1-n1cc(Br)cn1 registered its Post-emergence efficacy at 320 g/ha against AMARE in % at 100

----------
Reported Pre-emergence efficacy at 320 g/ha against KCHSC in % by item:
Test system: Kochia scoparia
Assay: Pre-emergence herbicide efficacy at 320 g/ha, KCHSC
Type: in vivo
Details: scored visually after about 3 weeks vs untreated controls, 100% = plants have died
The answer is to be given in %; state only the numeric part.

| smilesEntry | valueObserved |
| --- | --- |
| Cc1cnn(-c2c(C#N)cccc2Nc2ncc(F)cn2)c1 | 100 |
| N#Cc1cccc(Nc2ncc(F)cn2)c1-c1ccc(F)c(F)c1 | 90 |
| Cc1cnc(Nc2cccc(F)c2-c2cc(C(F)F)no2)nc1 | 100 |
| N#Cc1cccc(Nc2ncc(F)cn2)c1-n1cc(C(F)(F)F)cn1 | 100 |
| FC(F)c1cc(-c2ccccc2Nc2ncc(Cl)cn2)on1 | 90 |
| Fc1cccc(Nc2ncccn2)c1-c1cc(C(F)F)no1 | 100 |

The compound identified as COCc1cnn(-c2c(C#N)cccc2Nc2ncc(Cl)cn2)c1 registered its Pre-emergence efficacy at 320 g/ha against KCHSC in % at 100

The compound identified as N#Cc1cccc(Nc2ncc(Cl)cn2)c1-n1cccn1 registered its Pre-emergence efficacy at 320 g/ha against KCHSC in % at 90

The compound identified as Fc1cnc(Nc2cccc(F)c2-n2cc(C(F)(F)F)cn2)nc1 registered its Pre-emergence efficacy at 320 g/ha against KCHSC in % at 100

The compound identified as N#Cc1cnc(Nc2cccc(C#N)c2-n2cc(C(F)(F)F)cn2)nc1 registered its Pre-emergence efficacy at 320 g/ha against KCHSC in % at 90

The compound identified as N#Cc1cccc(Nc2ncc(Cl)cn2)c1-n1cc(C(F)(F)F)cn1 registered its Pre-emergence efficacy at 320 g/ha against KCHSC in % at 90

The compound identified as Cc1cnn(-c2c(C#N)cccc2Nc2ncc(Cl)cn2)c1 registered its Pre-emergence efficacy at 320 g/ha against KCHSC in % at 100

The compound identified as COc1cnc(Nc2cccc(F)c2-c2cc(C(F)F)no2)nc1 registered its Pre-emergence efficacy at 320 g/ha against KCHSC in % at 90

The compound identified as N#Cc1cccc(Nc2ncc(Cl)cn2)c1-n1cc(Cl)cn1 registered its Pre-emergence efficacy at 320 g/ha against KCHSC in % at 90

The compound identified as Fc1cccc(Nc2ncc(Cl)cn2)c1-c1cc(C(F)F)no1 registered its Pre-emergence efficacy at 320 g/ha against KCHSC in % at 100

The compound identified as Fc1cnc(Nc2cccc(F)c2-c2cc(C(F)F)no2)nc1 registered its Pre-emergence efficacy at 320 g/ha against KCHSC in % at 100

The compound identified as N#Cc1cccc(Nc2ncccn2)c1-n1cc(C(F)(F)F)cn1 registered its Pre-emergence efficacy at 320 g/ha against KCHSC in % at 90

----------
Tested on: Poa annua
Assay: Pre-emergence herbicide efficacy at 320 g/ha, POAAN
Format: in vivo
Conditions: scored visually after about 3 weeks vs untreated controls, 100% = plants have died
quantityName: Pre-emergence efficacy at 320 g/ha against POAAN in % (%)
The answer is to be given in %; state only the numeric part.

| smilesEntry | unitSpec | valueObserved |
| --- | --- | --- |
| N#Cc1cccc(Nc2ncc(Cl)cn2)c1Cc1ccc(F)cc1 | % | 100 |

API: the following record is the query input.
The molecule identified as N#Cc1cccc(Nc2ncc(F)cn2)c1-n1cc(C(F)(F)F)cn1 registered its Pre-emergence efficacy at 320 g/ha against POAAN in % at 100

----------
System: Amaranthus retroflexus
Test: Post-emergence herbicidal efficacy at 320 g/ha, AMARE
Format: in vivo
Settings: rated visually after about 3 weeks vs untreated controls, 100% = plants have died
Text: Unwanted plants/weeds: • ABUTH: Abutilon theophrasti • ALOMY: Alopecurus myosuroides • AMARE: Amaranthus retroflexus • DIGSA: Digitaria sanguinalis • ECHCG: Echinochloa crus-galli • KCHSC: Kochia scoparia • LOLRI: Lolium rigidum • MATIN: Matricaria inodora • POAAN: Poa annua • POLCO: Polygonum convolvulus • SETVI: Setaria viridis • STEME: Stellaria media • VERPE: Veronica persica • VIOTR: Viola tricolor A. Post-Emergence Herbicidal Efficacy at 320 g/ha […]
quantityName: Post-emergence efficacy at 320 g/ha against AMARE in % (%)
The answer is to be given in %; state only the numeric part.

| compound | unitSpec | valueObserved |
| --- | --- | --- |
| FC(F)c1cc(-c2ccccc2Nc2ncc(Cl)cn2)on1 [Example 1-31] | % | 100 |

The compound identified as FC(F)(F)CCCCc1ccccc1Nc1ncc(Cl)cn1 [Example 1-2] registered its Post-emergence efficacy at 320 g/ha against AMARE in % at 100

The compound identified as Fc1cnc(Nc2ccccc2SCCCC(F)(F)F)nc1 [Example 1-7] registered its Post-emergence efficacy at 320 g/ha against AMARE in % at 100

The compound identified as Fc1cnc(Nc2cccc(F)c2-c2cc(C(F)F)no2)nc1 [Example 1-34] registered its Post-emergence efficacy at 320 g/ha against AMARE in % at 100

The compound identified as N#Cc1cccc(Nc2ccc(F)cn2)c1-n1cc(C(F)(F)F)cn1 [Example 1-52] registered its Post-emergence efficacy at 320 g/ha against AMARE in % at 90

The compound identified as N#Cc1cccc(Nc2ccc(Cl)cn2)c1-n1cc(C(F)(F)F)cn1 [Example 1-59] registered its Post-emergence efficacy at 320 g/ha against AMARE in % at 90

----------
Test system: Digitaria sanguinalis
Test: Pre-emergence herbicide efficacy at 80 g/ha, DIGSA
Type: in vivo
Settings: scored visually after about 3 weeks vs untreated controls, 100% = plants have died
quantityName: Pre-emergence efficacy at 80 g/ha against DIGSA in % (%)
The answer is to be given in %; state only the numeric part.

A selection of reference data follows.
| smilesEntry | valueObserved |
| --- | --- |
| Clc1cnc(Cc2ccccc2Nc2ncc(Cl)cn2)nc1 | 80 |
| Fc1cccc(Nc2ncc(Cl)cn2)c1-c1cc(C(F)F)no1 | 90 |
| Cc1cnn(-c2c(C#N)cccc2Nc2ncc(Cl)cn2)c1 | 100 |
| Cc1cnc(Nc2cccc(F)c2-c2cc(C(F)F)no2)nc1 | 90 |
| Cc1cnc(Nc2cccc(C#N)c2-n2cc(C(F)(F)F)cn2)nc1 | 100 |
| Fc1cnc(Nc2cccc(F)c2-c2cc(C(F)F)no2)nc1 | 100 |
| N#Cc1cccc(Nc2ncc(F)cn2)c1-n1cc(C(F)(F)F)cn1 | 100 |
| FC(F)c1cc(-c2c(Cl)cccc2Nc2ncc(Cl)cn2)on1 | 100 |

The molecule identified as Fc1cnc(Nc2cccc(Cl)c2-c2cc(C(F)F)no2)nc1 registered its Pre-emergence efficacy at 80 g/ha against DIGSA in % at 100

The molecule identified as N#Cc1cccc(Nc2ncc(Cl)cn2)c1-n1cc(C(F)(F)F)cn1 registered its Pre-emergence efficacy at 80 g/ha against DIGSA in % at 100

----------
System: Kochia scoparia
Assay: Post-emergence herbicidal efficacy at 80 g/ha, KCHSC
Type: in vivo
Details: rated visually after about 3 weeks vs untreated controls, 100% = plants have died
quantityName: Post-emergence efficacy at 80 g/ha against KCHSC in %

| smilesEntry | targetOrTestSystem | valueObserved |
| --- | --- | --- |
| O=C(CCCC(F)(F)F)c1cccnc1Nc1ncc(Cl)cn1 | Kochia scoparia | 90% |
| FC(F)c1cc(-c2c(Cl)cccc2Nc2ncc(Cl)cn2)on1 | Kochia scoparia | 100% |
| N#Cc1cccc(Nc2ncc(F)cn2)c1-n1cc(C(F)(F)F)cn1 | Kochia scoparia | 100% |

API: the following record is the query input.
The molecule identified as Fc1cnc(Nc2cccc(Cl)c2-c2cc(C(F)F)no2)nc1 registered its Post-emergence efficacy at 80 g/ha against KCHSC in % at 100%
